Protocol description: In vivo single dose PK study in rats
Recorded conditions: male, Sprague-Dawley, rat, plasma, po, 10 mg/kg
Quantity: Tmax (h)
Answers are plain numbers, in h.

For record C/C(=C\c1ccc2ccccc2c1Cl)C(=O)Nc1ccc(F)cc1C(=O)O [Compound 54] the listed Tmax is 4.67

====

Protocol description: In vivo single dose PK study in rats
Recorded conditions: male, Sprague-Dawley, rat, plasma, oral, 10 mg/kg
Quantity: bioavailability (%)
Give bare numbers, in %.

Noted for C/C(=C\c1ccc2ccccc2c1Cl)C(=O)Nc1ccc(F)cc1C(=O)O [Compound 54] : its bioavailability reads 67.1

====

Kindly supply the reported inhibition at 10 µM values for the records listed here.
Target system: Human dihydroorotate dehydrogenase (DHODH) (Homo sapiens)
Sequence (Q02127 whole entry): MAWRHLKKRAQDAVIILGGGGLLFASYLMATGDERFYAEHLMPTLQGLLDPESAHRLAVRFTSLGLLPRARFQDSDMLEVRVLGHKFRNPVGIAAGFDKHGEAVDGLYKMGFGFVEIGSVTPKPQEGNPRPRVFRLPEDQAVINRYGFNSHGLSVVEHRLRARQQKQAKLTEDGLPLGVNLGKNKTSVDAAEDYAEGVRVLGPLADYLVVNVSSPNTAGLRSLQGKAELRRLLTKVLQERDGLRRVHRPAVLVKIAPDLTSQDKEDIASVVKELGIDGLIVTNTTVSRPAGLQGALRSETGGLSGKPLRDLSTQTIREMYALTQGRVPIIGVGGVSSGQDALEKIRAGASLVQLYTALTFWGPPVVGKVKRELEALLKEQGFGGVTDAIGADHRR
Protocol description: In vitro DHODH enzyme inhibition assay
Assay type: biochemical
Recorded conditions: read-out: Inhibition (%) at 10 μmol/L
Answers are plain numbers, in %.

{"columns": ["Chemical string", "Target system", "inhibition at 10 µM [%]"],
 "data": [
  ["C/C(=C\\c1cc2ccccc2cn1)C(=O)Nc1ccccc1C(=O)O", "Human dihydroorotate dehydrogenase (DHODH) (Homo sapiens)", 87.4],
  ["C/C(=C\\c1ccc(Cl)c(Cl)c1)C(=O)Nc1ccccc1C(=O)O", "Human dihydroorotate dehydrogenase (DHODH) (Homo sapiens)", 91.7],
  ["C/C(=C\\c1ccc(-c2ccccc2)cc1)C(=O)Nc1ccccc1C(=O)O", "Human dihydroorotate dehydrogenase (DHODH) (Homo sapiens)", 89.8]
]}

Now for the compound whose inhibition at 10 µM we want.
The compound listed as C/C(=C\c1ccc2ccccc2c1)C(=O)Nc1ccc(C(F)(F)F)cc1C(=O)O has a reported inhibition at 10 µM of 87.4

====

Target system: Human dihydroorotate dehydrogenase (DHODH) (Homo sapiens)
IC50 less than 400 nM is 1 (yes); IC50 greater than or equal to 400 nM is 0 (no).

{"columns": ["Compound", "Class label"],
 "data": [
  ["C/C(=C\\c1ccc(Cl)c(C(F)(F)F)c1)C(=O)Nc1ccccc1C(=O)O [Compound 18]", "0 (no)"]
]}

Task: Regarding C/C(=C\c1ccc2ccccc2c1)C(=O)Nc1ccc(C(F)(F)F)cc1C(=O)O [Compound 48] , kindly confirm whether its IC50 is beneath 400 nM.
Result: 0 (no)

Task: Hello, is IC50 of the following compound strictly smaller than 400 nM? C/C(=C\c1ccc2ccccc2c1)C(=O)Nc1ccccc1C(N)=O [Compound 51]
Result: 0 (no)

Task: I wonder whether C/C(=C\c1ccc(Oc2ccccc2)cc1)C(=O)Nc1ccccc1C(=O)O [Compound 34] has IC50 below 400 nM. Can you tell?
Result: 0 (no)

Task: Please check: IC50 for C/C(=C\c1ccc2cc(Br)ccc2c1)C(=O)Nc1ccccc1C(=O)O [Compound 26] , strictly under 400 nM or not?
Result: 0 (no)

Task: Is the reported IC50 for COc1ccc2cc(/C=C(\C)C(=O)Nc3ccccc3C(=O)O)ccc2c1 [Compound 25] strictly below 400 nM?
Result: 1 (yes)

Task: Say whether its IC50 is strictly beneath 400 nM. Entry: C/C(=C\c1ccc2c(Cl)cccc2c1)C(=O)Nc1ccccc1C(=O)O [Compound 27]
Result: 1 (yes)

Task: Check if IC50 falls below 400 nM for CC(C)(Oc1ccc2ccccc2c1)C(=O)Nc1ccccc1C(=O)O [Compound 37] .
Result: 0 (no)

Task: Does C/C(=C\c1cc2ccccc2cn1)C(=O)Nc1ccccc1C(=O)O [Compound 31] have IC50 strictly under 400 nM?
Result: 0 (no)

Task: IC50 under 400 nM? Item: C/C(=C\c1ccc2ccccc2c1)C(=O)Nc1cc(F)ccc1C(=O)O [Compound 43]
Result: 0 (no)
